Attribution: the CheMixHub drug solubility set

# solubility (g/100 g solution) annotations
Test: xn = mol fraction of the nth substance listed, in the solute-free solvent
Details: 293.15 K; x2 = 0.6
Lab note: record the figure alone, no unit after it.

Some compounds with known solubility (g/100 g solution) results, for comparison:
Cc1ncc(C[n+]2csc(CCO)c2C)c(N)n1.O=[N+]([O-])[O-] + O + CC(C)O: 0.705
OCCN(CCO)c1nc(N2CCCCC2)c2nc(N(CCO)CCO)nc(N3CCCCC3)c2n1 + CC(C)O + O: 9.25
Cc1ncc(C[n+]2csc(CCO)c2C)c(N)n1.O=[N+]([O-])[O-] + O + CC(C)=O: 0.996
CC(N)C(=O)O (stereo not given) + O + CC(C)O: 0.459

Exercise: Dear colleague, please send me the reported solubility (g/100 g solution) for OCCN(CCO)c1nc(N2CCCCC2)c2nc(N(CCO)CCO)nc(N3CCCCC3)c2n1 + CO + O when you can.
Solution: 1.12
